- System: DL1 cells
- protocol: cytotoxicity in Drosophila DL1 cells
- Type: cell-based
- test settings: DL1 cells, 10 µM, replicate 1
Quick reference: Luminescence Raw1 of the listed items.
// response body must contain only the number

Answered cases to consult:
compound	target	quantity name	measured number
C=C1CCC2C(C)(CCC=C(C)C)C(O)CCC2(C)C1Cc1c(OC)oc(C)c(C(=O)OC)c1=O (stereo not shown)	DL1 cells	Luminescence Raw1	133046
C=C1CCC2C(C)(CCC=C(C)C)C(O)CCC2(C)C1Cc1c(OC)oc(C)c(C)c1=O (stereo not shown) [Compound 11]	DL1 cells	Luminescence Raw1	281749
C=C1CCC2C(C)(CC(=O)C=C(C)C)C(O)CCC2(C)C1Cc1c(O)c(C)c(C)oc1=O (stereo not shown)	DL1 cells	Luminescence Raw1	751779
C=C1CCC2C(C)(CCC=C(C)C)C(O)CCC2(C)C1Cc1c(OC)oc(CO)c(C)c1=O (stereo not shown)	DL1 cells	Luminescence Raw1	130161
C=C1CCC2C(C)(CCC=C(C)C)C(O)CCC2(C)C1Cc1c(OC)oc(C)c(C)c1=O (stereo not shown) [Compound 15, viridoxin A hydrolysate]	DL1 cells	Luminescence Raw1	281027
C=C1CCC2C(C)(CC(=O)C=C(C)C)C(O)CCC2(C)C1Cc1c(OC)oc(C)c(C)c1=O (stereo not shown)	DL1 cells	Luminescence Raw1	2257781

// next entry
Find the measured Luminescence Raw1 of C=C1CC[C@H]2[C@]3(C)C[C@H](C=C(C)C)O[C@H]3CC[C@]2(C)[C@@H]1Cc1c(O)c(C)c(C)oc1=O and report it.
147812

###

Quick reference: Th-T fluorescence, mean of three wells (Fig. 7a) of the listed items.
- target: Aβ42 (Homo sapiens, UniProt P05067)
- Sequence (P05067 672-713): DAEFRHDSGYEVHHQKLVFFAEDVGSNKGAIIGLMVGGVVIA
- protocol: Th-T (thioflavin-T) assay of Aβ42 aggregation
- Type: biochemical
- test settings: reading M114; compound at 50 (head suffix _50)
// response body must contain only the number

Answered cases to consult:
compound	measured number
C=C1CC[C@@H]2[C@](C)(CC[C@H]3O[C@H](C=C(C)C)C[C@@]23C)[C@@H]1Cc1c(OC)oc(CO)c(C)c1=O	2.0998
C=C1CCC2C(C)(CCC=C(C)C)C(O)CCC2(C)C1Cc1c(OC)oc(CO)c(C)c1=O (centres unmarked)	1.449
C=C1CCC2C(C)(CCC=C(C)C)C(O)CCC2(C)C1Cc1c(OC)oc(CO)c(C(=O)OC)c1=O (centres unmarked)	0.4728

State the measured Th-T fluorescence, mean of three wells (Fig. 7a) (Aβ42 (Homo sapiens, UniProt P05067)) of C=C1CC[C@@H]2[C@](C)(CC[C@H]3O[C@H](C=C(C)C)C[C@@]23C)[C@@H]1Cc1c(OC)oc(CO)c(C(=O)OC)c1=O
0.488

State the measured Th-T fluorescence, mean of three wells (Fig. 7a) (Aβ42 (Homo sapiens, UniProt P05067)) of C=C1CCC2C(C)(CCC=C(C)C)C(O)CCC2(C)C1Cc1c(OC)oc(C)c(C(=O)OC)c1=O (centres unmarked)
1.107

###

- target: Aβ42 (Homo sapiens)
- protocol: Th-T (thioflavin-T) assay of Aβ42 aggregation
- Type: biochemical
- test settings: Aβ42 aggregation time course, reading M128
Quick reference: Th-T fluorescence, mean of three wells of the listed items.
// response body must contain only the number

State the measured Th-T fluorescence, mean of three wells (Aβ42 (Homo sapiens)) of C=C1CCC2C(C)(CCC=C(C)C)C(O)CCC2(C)C1Cc1c(OC)oc(CO)c(C)c1=O (stereo not drawn) [Compound 12]
2.036

State the measured Th-T fluorescence, mean of three wells (Aβ42 (Homo sapiens)) of C=C1CCC2C3(C)CC(C=C(C)C)OC3CCC2(C)C1Cc1c(OC)oc(C)c(C)c1=O (stereo not drawn) [Compound 23]
3.832

State the measured Th-T fluorescence, mean of three wells (Aβ42 (Homo sapiens)) of C=C1CCC2C(C)(CCC=C(C)C)C(O)CCC2(C)C1Cc1c(O)c(C)c(C)oc1=O (stereo not drawn) [Compound 4]
2.737
